Below, each of the variants is paired with its reported self-cleavage value.
B1: CPEB3 Ribozyme (parent)
chain: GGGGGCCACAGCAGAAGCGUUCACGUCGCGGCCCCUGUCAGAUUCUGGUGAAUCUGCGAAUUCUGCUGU

Variants of: B1
Test: self-cleavage, relative activity (ratio to wild type); higher = more cleavage; co-transcriptional

- SEQUENCE_ENTRY: "GUAGGCCACAGCAGAAGCGUUCACGUCGCGGCCCCUGUCAGAUUCUGGUGAAUCUGCGAAUUCUGCUGU [G2U G3A]"
  self-cleavage: 0.0298
- SEQUENCE_ENTRY: "GGGGGCCACAGCAGAAGCCUUCACGUCGCGGCCCCUGUCAGAUUCUGGUGAAUCUGCGAAUUCUGCUUU [G19C G68U]"
  self-cleavage: 0.13
- SEQUENCE_ENTRY: "GGGGCCCACAGCAGAAGCGUUCACGUCGCGGCCCCUGUCAGAUUCUGGUGAAUUUGCGAAUUCUGCUGU [G5C C54U]"
  self-cleavage: 0.219
- SEQUENCE_ENTRY: "GGGGGCCACAGCAGAAGCGUUCACAUGGCGGCCCCUGUCAGAUUCUGGUGAAUCUGCGAAUUCUGCUGU [G25A C27G]"
  self-cleavage: 0.208
- SEQUENCE_ENTRY: "GGGGGCCACAGCAGAAGCGUUCAUGUCGCGGCCCCUGUCAGAUUCUGGUGAAUCUGCGAACUCUGCUGU [C24U U61C]"
  self-cleavage: 0.353
- SEQUENCE_ENTRY: "GGGGGCCACAGCAGAAGCGUUCACUUCGCGGCCCCUGUCAGAUUCUGGUGAAUCUGCGAAUUCUGCUGU [G25U]"
  self-cleavage: 0.172
- SEQUENCE_ENTRY: "GGGGGGCACAGCAGAAGCGUUCACGUCGCGGCCCCUGUCAGAUUCUGGUGAAUCUGCGAAUUCUGCUGG [C6G U69G]"
  self-cleavage: 0.639
- SEQUENCE_ENTRY: "GGGGGCCACAGCAGAAGCGUUCACUUCGCGGCCCCUGUCAGAUUCUGGUGAAUCUGUGAAUUCUGCUGU [G25U C57U]"
  self-cleavage: 0.15
- SEQUENCE_ENTRY: "GGGAGCCACAGCAGAAGCGUUCACGUCGCGGCCCCUGUCAGAUUCUGGUGAAUCUGCGAAUUCUGCCGU [G4A U67C]"
  self-cleavage: 0.986
- SEQUENCE_ENTRY: "GGGGGCCACAGCAGUAGCGUUCACGUCGCGGCCCCUGUCAGAUUCUUGUGAAUCUGCGAAUUCUGCUGU [A15U G47U]"
  self-cleavage: 0.919
- SEQUENCE_ENTRY: "GAGGGCCACAGCACAAGCGUUCACGUCGCGGCCCCUGUCAGAUUCUGGUGAAUCUGCGAAUUCUGCUGU [G2A G14C]"
  self-cleavage: 0.075
- SEQUENCE_ENTRY: "GGGGGCAACAGCAAAAGCGUUCACGUCGCGGCCCCUGUCAGAUUCUGGUGAAUCUGCGAAUUCUGCUGU [C7A G14A]"
  self-cleavage: 0.167
- SEQUENCE_ENTRY: "GGGGGCCACAGCAGAAGCGUUCACGUCGCGGUCACUGUCAGAUUCUGGUGAAUCUGCGAAUUCUGCUGU [C32U C34A]"
  self-cleavage: 0.541
- SEQUENCE_ENTRY: "GGGGGCCACAGCAGAAGCGUUCACGUCGCAGCCCCUGUGAGAUUCUGGUGAAUCUGCGAAUUCUGCUGU [G30A C39G]"
  self-cleavage: 0.596
- SEQUENCE_ENTRY: "GGGAGCCACAGCAGAAGCGUUCACGUCGCGGCCCCUGUCAGAUUCUGGUGAAUCUUCGAAUUCUGCUGU [G4A G56U]"
  self-cleavage: 0.744
- SEQUENCE_ENTRY: "GGGGGCCACAGCAGAAGCGUUCACGUCGCCGCCCCUGGCAGAUUCUGGUGAAUCUGCGAAUUCUGCUGU [G30C U38G]"
  self-cleavage: 0.204
- SEQUENCE_ENTRY: "GGGGGCCACAGCAGAAGCGUUCACAUCCCGGCCCCUGUCAGAUUCUGGUGAAUCUGCGAAUUCUGCUGU [G25A G28C]"
  self-cleavage: 0.131
- SEQUENCE_ENTRY: "GGGGGCCACAGCAGAAGCGUUCAUGUCGCGGCCCCUGUCAGAUUCUGGUGAAUCUGCUAAUUCUGCUGU [C24U G58U]"
  self-cleavage: 0.879
- SEQUENCE_ENTRY: "GGGGGCCACAGCAGAAGCUUUCACGACGCGGCCCCUGUCAGAUUCUGGUGAAUCUGCGAAUUCUGCUGU [G19U U26A]"
  self-cleavage: 0.272
